Attribution: patent US10793531B2

target: full-length human PDE4D5 (Homo sapiens, UniProt Q08499); construct: stably expressed the full-length human PDE4D5, PDE4A4 and PDE4B1 long isoforms; made in house; cytosol fraction of the lysate; assay: PDE4 radio-assay, PDE4D5 long form activation (Experiment 1); assay type: biochemical; details: 1 μM compound; n ≥ 2; read-out: PDE4D5 activity (mean % increase in counts over basal activity without added compound)
Sequence (Q08499 1-745 isoform Q08499-6): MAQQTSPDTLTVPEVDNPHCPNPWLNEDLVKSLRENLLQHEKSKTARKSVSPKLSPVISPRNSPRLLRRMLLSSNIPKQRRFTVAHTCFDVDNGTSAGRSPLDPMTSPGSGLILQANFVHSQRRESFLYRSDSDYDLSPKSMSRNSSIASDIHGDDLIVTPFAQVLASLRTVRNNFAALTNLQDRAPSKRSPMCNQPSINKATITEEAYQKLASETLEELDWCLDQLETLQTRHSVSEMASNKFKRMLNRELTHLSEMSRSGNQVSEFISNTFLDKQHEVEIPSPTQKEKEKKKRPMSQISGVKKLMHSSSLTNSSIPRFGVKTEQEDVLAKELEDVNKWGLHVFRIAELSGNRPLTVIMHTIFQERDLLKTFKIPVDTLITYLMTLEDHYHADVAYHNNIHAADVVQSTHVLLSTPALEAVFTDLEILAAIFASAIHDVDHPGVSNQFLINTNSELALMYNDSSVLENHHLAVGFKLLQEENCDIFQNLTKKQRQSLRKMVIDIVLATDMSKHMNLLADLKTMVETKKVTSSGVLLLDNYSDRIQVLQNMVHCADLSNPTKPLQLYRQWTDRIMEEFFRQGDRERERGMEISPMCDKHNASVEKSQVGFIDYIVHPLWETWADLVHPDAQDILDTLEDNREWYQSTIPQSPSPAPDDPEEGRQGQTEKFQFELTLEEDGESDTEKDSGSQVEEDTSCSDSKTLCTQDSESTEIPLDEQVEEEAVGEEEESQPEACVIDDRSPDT
We begin with a simple list: items and their reported activation at 1 µM.
The figure you give is taken to be in %; do not add the unit.

Prompt: Which activation at 1 µM is listed for CCc1nc(-c2ccc(Cl)c(F)c2)nn1CC(=O)NCc1cccc(F)c1 ?
Response: -3.6

Prompt: Which activation at 1 µM is listed for COCc1nc(-c2ccc(OC(F)(F)F)cc2)nn1CC(=O)NCc1cccc(F)c1 ?
Response: 52.6

Prompt: Which activation at 1 µM is listed for COCc1nc(-c2ccc(Cl)cc2)nn1CC(=O)NCc1ccccc1 ?
Response: 7.2

Prompt: Which activation at 1 µM is listed for CCc1nc(-c2ccc(Cl)c(F)c2)nn1CC(=O)NCc1ccc(OC)c(OC)c1 ?
Response: 26
